# subject-of-test: Diacylglycerol lipase-beta (Homo sapiens)
# test-name: inhibition of human DAGLB hydrolase activity – biochemical, fluorescence, HTS, primary screen (AID 504411)
# conditions: HEK293T DAGLB membrane lysate, EnzChek fluorogenic substrate; at 5.17 µM
About 200 (0.059%) of roughly 340,000 compounds were called active. No stated cut-off is given here; in the data, active means inhibition above about 34%; inactive means the rest. The full list was thinned out, with actives kept by preference.
Labels: active, inactive

INSERT INTO results (molecule, group_label) VALUES
  ('COc1ccc(S(=O)(=O)/N=C2\C=C(NS(=O)(=O)c3ccccc3)C(=O)c3ccccc32)cc1', 'inactive'),
  ('CC(NC(=O)c1ccccc1SCC(=O)N1CCCC1)c1ccccc1 (centres undefined)', 'inactive'),
  ('Cc1ccc(S(=O)(=O)/N=C2\C=C(NS(=O)(=O)c3ccc(C)cc3)C(=O)c3ccccc32)cc1', 'active'),
  ('C/C(=N\OCC(=O)Nc1ccc(Br)cc1)c1cccs1', 'inactive'),
  ('CCn1c(SCC(=O)N2CCCC2=O)nc2ccccc21', 'inactive'),
  ('COCc1ccc(C(=O)N2CCc3c([nH]c4ccccc34)C2c2ccccn2)s1 (centres undefined)', 'inactive'),
  ('CN(C(=O)CSc1nnc(C2CC2)n1C)C1CCCc2ccccc21 (centres undefined)', 'inactive'),
  ('Cc1ccc(Cc2c(-c3ccccc3)nc3ccc(Cl)cn23)cc1', 'inactive'),
  ('Cc1ccc(CC(=O)N(C)CC(=O)N(CC(C)C)c2c(N)n(CC(C)C)c(=O)[nH]c2=O)cc1C', 'inactive'),
  ('CN(C(=O)CN1C(=O)CCSc2ccc(S(=O)(=O)N3CCCC3)cc21)c1ccccc1', 'inactive'),
  ('O=C(Cn1ncc2c3ccccc3n(Cc3ccccc3)c2c1=O)NCCCN1CCOCC1', 'inactive'),
  ('COCc1ccc(CN2CCC(Oc3ccc(C(=O)NCc4ccccn4)cc3)CC2)o1', 'inactive'),
  ('C=CCN(C(=O)Cn1ncc2c1-c1cc(C)ccc1OC2)c1ccccc1', 'inactive'),
  ('O=c1oc(-c2ccccc2NS(=O)(=O)c2ccc(Cl)cc2)nc2ccccc12', 'inactive');
